These measurements were taken from the supplement of paper PMC7411640.

Assignment: determine reported phospho-S6 immunofluorescence (z-score) for the given compounds.
# Tested on: MDA-MB-468
# assayDetails: phospho-S6 immunofluorescence (DAPI-normalised), per-plate z-score; higher = higher phospho-S6 signal (less pathway suppression)
# appliedConditions: co-treatment: lapatinib 1 uM; 24 h
Counter-ions that a name gives are not always drawn.
Just the number.

# get_value(readout='phospho-S6 immunofluorescence (z-score)', item= CC(C[N+](C)(C)C)OC(N)=O (configuration not stated) [Bethanechol (chloride)] (compound 10 µM) )
0.01

Repeat for the following compound: Cc1ccc(S(=O)(=O)N2CCCC2c2ccc(F)cc2)cc1 (configuration not stated) (compound 10 µM)
0.46

Repeat for the following compound: CN1CCC(=C2c3ccccc3C=Cc3ccccc32)CC1 [Cyproheptadine (hydrochloride sesquihydrate)] (compound 10 µM)
-0.96

Repeat for the following compound: COc1nc(C)cnc1NS(=O)(=O)c1cccnc1-c1ccc(-c2nnco2)cc1 [Zibotentan] (compound 10 µM)
-0.19

Repeat for the following compound: N[C@@H](COP(=O)(O)O)C(=O)O [O-Phospho-L-serine] (compound 10 µM)
0.05

Repeat for the following compound: COCCCN1CCC(NC(=O)c2cc(Cl)c(N)c3c2OCC3)CC1 [Prucalopride] (compound 10 µM)
0

Repeat for the following compound: CC1CCN(CC[C@H]2CCCN2S(=O)(=O)c2cccc(O)c2)CC1 (compound 10 µM)
0.2

Repeat for the following compound: C[N+](C)(C)CCOC(N)=O [Carbamoylcholine (chloride)] (compound 10 µM)
0.02

Repeat for the following compound: COc1cc(N)c(Cl)cc1C(=O)NC1CCN(CCCOc2ccc(F)cc2)CC1OC (configuration not stated) [Cisapride] (compound 10 µM)
-1.88

Repeat for the following compound: Cc1noc(-c2ccc(-c3ccc(CC(=O)O)cc3)cc2)c1NC(=O)OC(C)c1ccccc1Cl (configuration not stated) (compound 10 µM)
0.28

Repeat for the following compound: CCCN(CCc1cccs1)[C@H]1CCc2c(O)cccc2C1 [Rotigotine (Hydrochloride)] (compound 10 µM)
0.3

Repeat for the following compound: C[C@]12C=CC(=O)C=C1CC[C@@H]1[C@@H]2C(=O)C[C@@]2(C)[C@H]1CC[C@]2(O)C(=O)CO [Prednisone] (compound 10 µM)
1.24

Repeat for the following compound: CC(C)NCC(O)COc1cccc2ccccc12 (configuration not stated) [Propranolol (hydrochloride)] (compound 10 µM)
0.73

Repeat for the following compound: CNCCc1ccccn1 [Betahistine (dihydrochloride)] (compound 10 µM)
0.1

Repeat for the following compound: OC(CNCC(O)C1CCc2cc(F)ccc2O1)C1CCc2cc(F)ccc2O1 (configuration not stated) [Nebivolol (hydrochloride)] (compound 10 µM)
-3.76

Repeat for the following compound: CC(=O)Nc1cccc2c1c(Sc1ccc(Cl)cc1)c(C)n2CC(=O)O (compound 10 µM)
0.08

Repeat for the following compound: Cc1ccc(-c2n[nH]c3c2C(c2cccc(O)c2)N(c2ccc(C(=O)O)cc2)C3=O)cc1 (configuration not stated) (compound 10 µM)
0.5

Repeat for the following compound: CCC(=O)OCC(=O)[C@@]1(OC(=O)CC)[C@@H](C)C[C@H]2[C@@H]3CCC4=CC(=O)C=C[C@]4(C)[C@@]3(F)[C@@H](O)C[C@@]21C [Betamethasone dipropionate] (compound 10 µM)
-0.45

Repeat for the following compound: CN(C)CCC(c1ccc(Cl)cc1)c1ccccn1 (configuration not stated) [Chlorpheniramine (maleate)] (compound 10 µM)
-10.5

Repeat for the following compound: C[C@@H](OC[C@@]1(c2ccccc2)CC[C@]2(CCC(=O)N2)CN1)c1cc(C(F)(F)F)cc(C(F)(F)F)c1 [Rolapitant] (compound 10 µM)
-3.8

Repeat for the following compound: COC(c1ccccc1)(c1ccccc1)[C@H](Oc1nc(C)cc(C)n1)C(=O)O [Ambrisentan] (compound 10 µM)
0.5

Repeat for the following compound: C[C@H](NC(=O)c1c(C(F)F)nn(C)c1Oc1cccc(C(F)(F)F)c1)c1ccc(C(=O)O)cc1 (compound 10 µM)
0.46

Repeat for the following compound: COC(=O)[C@H]1[C@H]2C[C@H]3c4[nH]c5ccccc5c4CCN3C[C@H]2CC[C@@H]1O [Rauwolscine (hydrochloride)] (compound 10 µM)
0.38

Repeat for the following compound: CC(C)(C)NCC(O)c1cc(O)cc(O)c1 (configuration not stated) [Terbutaline (sulfate)] (compound 10 µM)
1.51

Repeat for the following compound: NCCCC[C@H](NC(=O)[C@@H]1CCCN1C(=O)[C@@H]1CSSC[C@H](NC(=O)CNC(=O)CNC(=O)CN)C(=O)N[C@@H](Cc2ccc(O)cc2)C(=O)N[C@@H](Cc2ccccc2)C(=O)N[C@@H](CCC(N)=O)C(=O)N[C@@H](CC(N)=O)C(=O)N1)C(=O)NCC(N)=O [Terlipressin] (compound 10 µM)
0.98

Repeat for the following compound: CC1(C)CN2C(CSC(=NC3CCCCC3)NC3CCCCC3)=CSC2=N1 [IT1t (dihydrochloride)] (compound 10 µM)
-0.41

Repeat for the following compound: CC(C)(C)NCC(O)COc1cccc2c1CCC(=O)N2 (configuration not stated) [Carteolol (hydrochloride)] (compound 10 µM)
0.45
